All values here come from the supplement of paper PMC10338343.

System: EfPiwi piRISC loaded with L1MC piRNA (26 nt)
Experiment: pre-steady-state target cleavage rate (min^-1); auxiliary factor: 500 nM Ephydatia muelleri Gtsf1; guide: L1MC piRNA 5'p-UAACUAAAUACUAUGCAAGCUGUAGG; higher = faster piRNA-guided slicing of the target
// thresholds for pre-steady-state target cleavage rate classes: low band (below 0.005), middle band (0.005 to below 0.009), high band (0.009 or more)

Some solved entries appear below for comparison.
residue codes: UCCUGGUACAGGUUGGAUAGUAUUUAGUUA
target entity: EfPiwi piRISC loaded with L1MC piRNA (26 nt)
qualitative label: low band
--
residue codes: UCCUGGAUCACGUUGCAUAGUAUUUAGUUA
target entity: EfPiwi piRISC loaded with L1MC piRNA (26 nt)
qualitative label: high band
--
residue codes: UCCUGGAUGUGCUUGCAUAGUAUUUACUAA
target entity: EfPiwi piRISC loaded with L1MC piRNA (26 nt)
qualitative label: high band

### Prompt Entry `UCCUGGAUCAGCUAGCAUAGUAAUUAGUUA` belongs to which category?
### Response low band

### Prompt Entry `UCCUGGAUUAGCUUGCAUAGUAUUUAGUUA` belongs to which category?
### Response high band

### Prompt Entry `UCCUGGAUGAGCUUGCAUAGUACUUUAGUUA` belongs to which category?
### Response middle band

---

As shown below, each of these sequences has a reported pre-steady-state target cleavage rate value.
Tested on: EfPiwi piRISC loaded with L1MC piRNA (26 nt)
Experiment: pre-steady-state target cleavage rate (min^-1); auxiliary factor: 500 nM Ephydatia muelleri Gtsf1; guide: L1MC piRNA 5'p-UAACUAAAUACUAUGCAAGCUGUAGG; MIWI and MILI are mouse PIWI proteins and EfPiwi is from a freshwater sponge; tags in brackets are library labels; higher = faster piRNA-guided slicing of the target
Reply: number alone, nothing else.

Field: example entries. Status: answers known.
residue codes: UCCUGGUACAGCGUGCAUAGUAUUUAGUUA
pre-steady-state target cleavage rate: 0.0121

residue codes: UCCUGCUACAGCUUGCAAAGUAUUUACAAA
pre-steady-state target cleavage rate: 0.00394

residue codes: UCCUCCAACAGCUUGCAUAGUUUUUAGUUA
pre-steady-state target cleavage rate: 0.0119

### Prompt Any idea what pre-steady-state target cleavage rate was measured for `UCCUCCUACAGCUUGCAUAGAAUUUAGAAA` ?
### Response 0.00385

### Prompt Any idea what pre-steady-state target cleavage rate was measured for `UCCUGCUACAGCUUGCAUAGAAUUUAGAUA` ?
### Response 0.00319

### Prompt Any idea what pre-steady-state target cleavage rate was measured for `UCCUGGAUGACGAUGCAUAGUAUUUAGUUA` ?
### Response 0.00546

### Prompt Any idea what pre-steady-state target cleavage rate was measured for `UCCUCCUUCAGCAUGCAUAGUAUUUAGUUA` ?
### Response 0.0621

### Prompt Any idea what pre-steady-state target cleavage rate was measured for `UCCUCCUACUGCUUGCAAAGUAUUUAGUUA` ?
### Response 0.0558

### Prompt Any idea what pre-steady-state target cleavage rate was measured for `UCCUGCUACAGCUUGCUUACUAUUUAGUUA` ?
### Response 0.0113

### Prompt Any idea what pre-steady-state target cleavage rate was measured for `UCCUGCUACAGGUUGGAUAGUAUUUAGUUA` ?
### Response 0.00793

### Prompt Any idea what pre-steady-state target cleavage rate was measured for `UCCUGGUAAAGCUUGCAUAGUAUUUAGUUA` ?
### Response 0.00606

### Prompt Any idea what pre-steady-state target cleavage rate was measured for `UCCUGGAACAGCUUGGAUAGUUUUUAGUUA` ?
### Response 0.00298

### Prompt Any idea what pre-steady-state target cleavage rate was measured for `UCCUGGAACAGGUUGCAUAGUAUAUAGUUA` ?
### Response 0.0101
